System: 699152-130-R-J1-PDC complex spheroid growth;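 further: compound exposure lasted 7 days after spheroids had grown for 3 days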
Experiment: Anticancer human tumor 699152-130-R-J1-PDC patient-derived pancreatic carcinoma cell line growth inhibition [AhR]
Details: second compound 3.16 µM; first compound 1 µM; stronger effect = lower value
From the text: Multicellular complex tumor spheroid response to aryl hydrocarbon receptor antagonists in combination with a variety of drugs and investigational agents in selected tumor cell lines […] Compounds. […] If the clinical Cmax for an agent had not been determined, the highest concentration tested was 10 microM (Table 1). […]
Give viability, T/C for every item shown.
// return numeric value only (unit: %, not printed)

In: Any idea what viability, T/C came out for COc1cccc2c1C(=O)c1c(O)c3c(c(O)c1C2=O)CC(O)(C(=O)CO)CC3OC1CC(N)C(O)C(C)O1 (stereo unspecified) + CC(CO)NC(=O)c1cc(-c2ccc(Cl)cc2)nn(-c2cnn(C)c2)c1=O on 699152-130-R-J1-PDC complex spheroid growth?
Out: 9.03

In: Query the reported viability, T/C for 699152-130-R-J1-PDC complex spheroid growth; item: COc1cc(C2c3cc4c(cc3C(OC3OC5COC(C)OC5C(O)C3O)C3COC(=O)C23)OCO4)cc(OC)c1O (stereo unspecified) + CC(CO)NC(=O)c1cc(-c2ccc(Cl)cc2)nn(-c2cnn(C)c2)c1=O
Out: 65.5

In: Given the entry CC1COCCN1c1cc(-c2ccnn2C)c2ccnc(-c3ccn[nH]3)c2n1 (stereo unspecified) + CC(CO)NC(=O)c1cc(-c2ccc(Cl)cc2)nn(-c2cnn(C)c2)c1=O , what viability, T/C was observed with 699152-130-R-J1-PDC complex spheroid growth?
Out: 65

In: Report viability, T/C for Nc1ccn(C2OC(CO)C(O)C2(F)F)c(=O)n1 (stereo unspecified) + Cc1cncc(-c2nc(NCCc3c[nH]c4ccccc34)c3ncn(C(C)C)c3n2)c1 tested on 699152-130-R-J1-PDC complex spheroid growth.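 Further: compound exposure lasted 7 days after spheroids had grown for 3 days.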
Out: 50.8

In: Param readout = viability, T/C; param system = 699152-130-R-J1-PDC complex spheroid growth; param query = Nc1ccn(C2OC(CO)C(O)C2(F)F)c(=O)n1 (stereo unspecified) + Cc1ccccc1N=Nc1ccc(NC(=O)c2ccnn2C)c(C)c1 ; response: value;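 further: compound exposure lasted 7 days after spheroids had grown for 3 days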
Out: 48.3

In: // fetch 699152-130-R-J1-PDC complex spheroid growth viability, T/C for COc1cccc2c1C(=O)c1c(O)c3c(c(O)c1C2=O)CC(O)(C(=O)CO)CC3OC1CC(N)C(O)C(C)O1 (stereo unspecified) + Cc1cncc(-c2nc(NCCc3c[nH]c4ccccc34)c3ncn(C(C)C)c3n2)c1
Out: 5.89

In: What measured viability, T/C is associated with CC1COCCN1c1cc(C2(S(C)(=N)=O)CC2)nc(-c2ccnc3[nH]ccc23)n1 (stereo unspecified) + Cc1ccccc1N=Nc1ccc(NC(=O)c2ccnn2C)c(C)c1 on 699152-130-R-J1-PDC complex spheroid growth?
Out: 99

In: Please state recorded viability, T/C (tested on 699152-130-R-J1-PDC complex spheroid growth) of Nc1ncn(C2CC(O)C(CO)O2)c(=O)n1 (stereo unspecified) + Cc1cncc(-c2nc(NCCc3c[nH]c4ccccc34)c3ncn(C(C)C)c3n2)c1;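 further: compound exposure lasted 7 days after spheroids had grown for 3 days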
Out: 93.9

In: Checklist item: viability, T/C tested on 699152-130-R-J1-PDC complex spheroid growth, entry O=C(C=Cc1cccc(S(=O)(=O)Nc2ccccc2)c1)NO + CC(CO)NC(=O)c1cc(-c2ccc(Cl)cc2)nn(-c2cnn(C)c2)c1=O , value?;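 further: compound exposure lasted 7 days after spheroids had grown for 3 days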
Out: 95.4

In: Give the reported viability, T/C for CC1(C)CCC(CN2CCN(c3ccc(C(=O)NS(=O)(=O)c4ccc(NCC5CCOCC5)c([N+](=O)[O-])c4)c(Oc4cnc5[nH]ccc5c4)c3)CC2)=C(c2ccc(Cl)cc2)C1 + Cc1ccccc1N=Nc1ccc(NC(=O)c2ccnn2C)c(C)c1 (system: 699152-130-R-J1-PDC complex spheroid growth).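 Further: compound exposure lasted 7 days after spheroids had grown for 3 days.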
Out: 102

In: Identify the measured viability, T/C of CC1(C)CCC(CN2CCN(c3ccc(C(=O)NS(=O)(=O)c4ccc(NCC5CCOCC5)c([N+](=O)[O-])c4)c(Oc4cnc5[nH]ccc5c4)c3)CC2)=C(c2ccc(Cl)cc2)C1 + Cc1cncc(-c2nc(NCCc3c[nH]c4ccccc34)c3ncn(C(C)C)c3n2)c1 for 699152-130-R-J1-PDC complex spheroid growth.
Out: 123

Provenance of the data: PubChem BioAssay AID1919001
